# credit: patent US20230091047A1

EC50 values by entry
test system: HBV (HepG2.117 cell line, inducibly HBV producing); assay: Anti-HBV activity: intracellular HBV DNA by real-time PCR in HepG2.117 cells after 3 days of treatment; assay type: cell-based, hepatitis B virus; conditions: Hepatitis B virus, HepG2.117, 72 h, HepG2.117 cells, 3 days of treatment, intracellular HBV DNA by real-time PCR; mean value; read-out: EC50 (μM, mean value)
Express it in µM; write the number only.

Solved cases (3 shown):
Structure As Smiles: CC(C)Nc1nc2c(c(=O)n1-c1ccc3c(c1)C(=O)NC3)C[C@@H](C)N(C(=O)c1ccc(Cl)c(Cl)c1)C2
Experimental Value: 0.11
//
Structure As Smiles: CC(C)Nc1nc2c(c(=O)n1-c1ccc(S(C)(=O)=O)cc1)CCN(C(=O)c1[nH]c3ccccc3c1Cl)C2
Experimental Value: 1.94
//
Structure As Smiles: CC(C)Nc1nc2c(c(=O)n1-c1ccc(S(C)(=O)=O)cc1)CCN(C(=O)c1nc3ccc(Cl)cc3[nH]1)C2
Experimental Value: 4.45

Now for the compound whose EC50 we want.
Query: Given the compound CNC(=O)c1ccc(-n2c(NC(C)C)nc3c(c2=O)C[C@@H](C)N(C(=O)c2ccc(Cl)c(Cl)c2)C3)cn1 , write its reported EC50.
Reply: 0.18

---

experiment: in vitro; type: cell-based; conditions: human, HepG2 or HepG2.117 cells, ATPlite, 3-days incubation (not marked with *), mean value
Recorded Endpoint: CC50 at 3 days

Solved cases (4 shown):
Molecule: CNC(=O)c1ccc(-n2c(NC(C)C)nc3c(c2=O)C[C@@H](C)N(C(=O)c2cc(C)c(C#N)c(C)c2)C3)cc1
Experimental Value: > 50 µM
--
Molecule: CNC(=O)c1ccc(-n2c(N[C@@H](C)c3ccc(C(F)(F)F)cc3)nc3c(c2=O)C[C@@H](C)N(C(=O)c2ccc(Cl)c(Cl)c2)C3)cn1
Experimental Value: > 50 µM
--
Molecule: CNC(=O)c1ccc(-n2c(NC(C)C)nc3c(c2=O)C[C@@H](C)N(C(=O)c2ccc(C)c(Br)c2)C3)cc1
Experimental Value: > 50 µM
--
Molecule: CNC(=O)c1ncc(-n2c(NC(C)C)nc3c(c2=O)C[C@@H](C)N(C(=O)c2ccc(Cl)c(C(F)(F)F)c2)C3)n1C
Experimental Value: > 50 µM

Query: Given the molecule CNC(=O)c1ccc([C@@H](C)Nc2nc3c(c(=O)n2-c2ccc(C(=O)NC)cc2)C[C@@H](C)N(C(=O)c2ccc(Cl)c(Cl)c2)C3)cc1 (single isomer, unassigned) [Compound C530a] , write its reported CC50 at 3 days.
Reply: > 50 µM

Query: Given the molecule CNC(=O)c1ccc(-n2c(NC(C)c3ccc(S(C)(=O)=O)cc3)nc3c(c2=O)C[C@@H](C)N(C(=O)c2ccc(Cl)c(Cl)c2)C3)cc1 (stereo partly shown) , write its reported CC50 at 3 days.
Reply: > 50 µM

---

test: in vitro; format: cell-based; settings: human, HepG2 or HepG2.117 cells, 3-days incubation (unmarked values), ATPlite; mean value
Recorded Endpoint: CC50 at 3 days

Solved cases (3 shown):
Molecule: CC(C)Nc1nc2c(c(=O)n1-c1ccc(S(C)(=O)=O)cc1)CC(C)N(C(=O)c1ccc(Cl)c(Cl)c1)C2 (stereo not shown)
Recorded Endpoint: CC50 at 3 days
Experimental Value: > 25 µM
--
Molecule: COc1ccc(CNc2nc3c(c(=O)n2-c2ccc(C(C)=O)cc2)CCN(C(=O)c2ccc(Cl)c(Cl)c2)C3)cc1
Recorded Endpoint: CC50 at 3 days
Experimental Value: > 50 µM
--
Molecule: CC(C)Nc1nc2c(c(=O)n1-c1ccncc1)CCN(C(=O)c1ccc(Cl)c(Cl)c1)C2
Recorded Endpoint: CC50 at 3 days
Experimental Value: > 50 µM

Now for the molecule whose CC50 at 3 days we want.
Query: Given the molecule CC(C)Nc1nc2c(c(=O)n1-c1ccc(C(=O)NCCO)cc1)C[C@@H](C)N(C(=O)c1ccc(Cl)c(Cl)c1)C2 , write its reported CC50 at 3 days.
Reply: > 50 µM
